# PROTOCOL TEXT: qHTS RealTime-Glo MT Cell Viability Assay in HEK293 cells - 8 hour (AID 1224887); also: nearly all actives have a fitted effect of over 50% in size
# EXPERIMENTAL PARAMETERS: RealTime-Glo luminescence; series mostly up to 76.8 µM
Results filed as inconclusive are left out. The source made the active and inactive calls. Calls follow the shape of the dose curve; as a rule, active = well fitted cell-killing curve with a large enough effect in the repeat runs; inconclusive = weak or mixed curves, or effect the other way; inactive = flat fitted curve, though single readings scatter.
I would appreciate it if you answered using one of these outcomes: YES for active, NO for inactive

[Q] What did the test return for CCc1c(C(=O)O)c(=O)cnn1-c1ccc(Cl)cc1 ?
[A] NO

[Q] Tell me the assay call for COC(=O)CC#N please.
[A] NO

[Q] Which outcome did this test record for the compound Clc1ccc(C(c2ccccc2Cl)C(Cl)Cl)cc1 (stereo not given) ?
[A] NO

[Q] // param item: C[Si](C)(C)Cl ; yields the recorded call
[A] NO

[Q] For CCCCN(C)C , what call appears in the results of this test?
[A] NO

[Q] What call does the record list for CCOC(=O)[C@@](C)(N)Cc1ccc(O)c(O)c1 ?
[A] NO

[Q] Hi team, can someone confirm the assay call for Cn1cnc2ncnc(N)c21 ?
[A] NO

[Q] Hey, what did the test say about NC(=O)C(=O)N/N=C/c1ccc([N+](=O)[O-])o1 ?
[A] NO

[Q] For C=CC/C=C/C/C=C/C/C=C/C , which call appears in the assay record?
[A] NO

[Q] Dear colleague, could you share the recorded outcome for O=C(O)CCn1c2c(c3ccccc31)C[C@H](NS(=O)(=O)c1ccc(F)cc1)CC2 when you have a moment?
[A] NO

[Q] Record lookup: outcome of this test for COc1cc(C(=O)NS(=O)(=O)c2ccccc2C)ccc1Cc1cn(C)c2ccc(NC(=O)OC3CCCC3)cc12 ?
[A] NO

[Q] Name the outcome recorded for CCCCCCCC/C=C/CCCOC(C)=O in the assay.
[A] NO

[Q] Would you mind telling me which call this test gave CCCCCCCC/C=C\CCCCCCCC(=O)NCc1ccc(O)c(OC)c1 ?
[A] YES

[Q] What classification did OCCN1CN(CCO)CN(CCO)C1 end up with in this test?
[A] NO

[Q] Could you kindly confirm the outcome this assay logged for CCCCCCOc1ccc(O)cc1 ?
[A] YES

[Q] Hey, what did the test say about CCOC(=O)CC(C)O (stereo not given) ?
[A] NO

[Q] Called result for CCCCCCCCCCCCCc1ccccc1
[A] NO

[Q] So what was the verdict on C=CC(=O)OCC(O)COc1ccccc1 (stereo not given) in this test?
[A] NO

[Q] Test call, this compound: Cc1cc(C)c(C=O)c(C)c1
[A] NO

[Q] For S=P(N1CC1)(N1CC1)N1CC1 , what call appears in the results of this test?
[A] NO
